- MEASURED_ON: β2 -receptors (Cavia porcellus)
- Construct: tested on anesthetized guinea pigs; from tissue; host or cells: living anesthetized guinea pig, airways (Konzett-Rossler)
- Sequence (Q8K4Z4 whole entry): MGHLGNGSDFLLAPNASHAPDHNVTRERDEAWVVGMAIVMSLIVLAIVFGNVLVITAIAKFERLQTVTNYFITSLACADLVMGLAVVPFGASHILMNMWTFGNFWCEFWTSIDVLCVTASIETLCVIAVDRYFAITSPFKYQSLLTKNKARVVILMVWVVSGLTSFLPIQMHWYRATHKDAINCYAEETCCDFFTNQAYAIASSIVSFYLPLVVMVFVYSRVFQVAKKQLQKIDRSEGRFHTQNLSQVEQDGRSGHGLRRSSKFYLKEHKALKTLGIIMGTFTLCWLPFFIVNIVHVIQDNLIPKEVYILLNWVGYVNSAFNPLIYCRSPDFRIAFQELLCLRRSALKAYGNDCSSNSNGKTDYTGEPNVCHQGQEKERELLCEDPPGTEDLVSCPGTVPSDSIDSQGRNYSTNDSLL
- PROTOCOL_NOTES: β2-mimetic activity: antagonism to acetylcholine bronchospasm in anesthetized guinea pigs (Konzett-Rossler)
- Type: in vivo
- CONDITIONS: guinea pig, iv, bronchospasm by 20 γ/kg acetylcholine i.v., test compound i.v., graphic extrapolation (Table I)
Counter-ions that a name gives are not always drawn.
Item-by-item account of ED50
RECORDED_METRIC: ED50 (µg/kg)

[[record]]
compound = "CC(C)(C)NCC(O)c1cc(Br)c(N)c(C#N)c1.Cl (centres unmarked) [J]"
result_value = 4.8

[[record]]
compound = "CC(C)(C)N1COC(c2cc(F)c(N)c(Br)c2)C1.Cl.Cl (centres unmarked) [B]"
result_value = 6.7

[[record]]
compound = "Cl.Nc1c(F)cc(C(O)CNC2CCC2)cc1Br (centres unmarked) [K]"
result_value = 58

[[record]]
compound = "Cl.Nc1c(F)cc(C(O)CNC2CC2)cc1Cl (centres unmarked) [C]"
result_value = 24

[[record]]
compound = "Br.N#Cc1cc(C(O)CNC2CCC2)ccc1N (centres unmarked) [O]"
result_value = 6.9

[[record]]
compound = "CC(Cc1ccc2c(c1)OCO2)NCC(O)c1cc(Cl)c(N)c(C#N)c1 (centres unmarked) [V, hydrochloride]"
result_value = 2.7

[[record]]
compound = "Nc1c(Cl)cc(C(O)CNC2CCC2)cc1C(F)(F)F (centres unmarked) [H]"
result_value = 6.8

[[record]]
compound = "CC(C)(CO)NCC(O)c1cc(Cl)c(N)c(C#N)c1 (centres unmarked) [S]"
result_value = 10

[[record]]
compound = "Cl.N#Cc1cc(C(O)CNC2CCC2)cc(Br)c1N (centres unmarked) [W]"
result_value = 20.5

[[record]]
compound = "CCC(C)(C)NCC(O)c1cc(Cl)c(N)c(C#N)c1.Cl (centres unmarked) [T]"
result_value = 1.9

[[record]]
compound = "CC(C)(C)NCC(O)c1cc(Cl)c(N)c([N+](=O)[O-])c1 (centres unmarked) [Z]"
result_value = 31.5

